Test system: Plasmodium falciparum
Experiment: Antimalarial activity against chloroquine-sensitive Plasmodium falciparum HB3 by pico-green dye based fluorescence assay
Assay type: functional, organism-based
pIC50: −log10 of the molar value.
Reported Property: pIC50

1. C/C1=C/C(=O)O[C@H](C(C)(C)C)CCC[C@H](O)CCC[C@H](O)CCC[C@H](O)CCC[C@@H](O)C[C@@H](O)C[C@H](O)CCC[C@@H](O)CCC[C@@H](O)C[C@@H](O)CCCCC1    5.85

The origin of these recorded values is ChEMBL document CHEMBL4130616.
